Hello, the source for this data is paper PMC6102592, in case you need it.

melting point values for the molecules below.

Look at this molecule and give its reported melting point. CC1CCCN(c2ccc(C=NNC(=O)CSc3nc4cc(Cl)ccc4s3)cc2)C1 (stereo not shown) 149 to 150 °C

Look at this molecule and give its reported melting point. COc1ccc2sc(SCC(=O)NN=Cc3ccc(N4CCCCC4)cc3)nc2c1 138 to 139 °C

* * *

tested on: C6 cell line; assay: Flow cytometric analysis (Annexin V-FITC/PI); type: cell-based, Rat; details: C6, IC50 (0.03 mM), 24 h
reported.metric: Q4 percentage of early apoptotic cells (%)
Please give a number only; it is taken to be in %.

> print(dat)
                                   molecule  unit.spec  reported.result
1  COc1ccc(N2CCN(c3ccc(C=NNC(=O)CSc4nc5cc(Cl)ccc5s4)cc3)CC2)cc1          %              3.5
2  COc1ccc2sc(SCC(=O)NN=Cc3ccc(N4CCCC(C)C4)cc3)nc2c1 (stereo not shown)          %              4.6
3  N.N.[Cl][Pt][Cl] [Cisplatin, reference compound]          %              2.6

Now examine the next entry.
Look at this molecule and give its reported Q4 percentage of early apoptotic cells. CC1CCN(c2ccc(C=NNC(=O)CSc3nc4cc(Cl)ccc4s3)cc2)CC1 2.4

* * *

pIC50 values for the compounds below.
tested on: C6 (Rat brain glioma cell line); assay: MTT cytotoxicity test, C6; type: cell-based; details: Rattus norvegicus, Glioma cell, 24 h incubation
pIC50: −log10 of the molar value.

Example cases with answers are listed next.
> print(dat)
                                   compound                      test.target  reported.metric  reported.result
1  COc1ccc2sc(SCC(=O)NN=Cc3ccc(N4CCCCC4)cc3)nc2c1  C6 (Rat brain glioma cell line)            pIC50           < 3.00
2  COc1ccc2sc(SCC(=O)NN=Cc3ccc(N4CCCCC4C)cc3)nc2c1 (stereo not drawn)  C6 (Rat brain glioma cell line)            pIC50           < 3.00

Now examine the next entry.
Look at this compound and give its reported pIC50. COc1ccc(N2CCN(c3ccc(C=NNC(=O)CSc4nc5cc(OC)ccc5s4)cc3)CC2)cc1 < 3.00

* * *

melting point values for the compounds below.

Example cases with answers are listed next.
> print(dat)
                                   compound  reported.result
1  O=C(CSc1nc2cc(Cl)ccc2s1)NN=Cc1ccc(N2CCCCC2)cc1    178 to 179 °C
2  COc1ccc2sc(SCC(=O)NN=Cc3ccc(N4CCCCC4C)cc3)nc2c1 (centres unmarked)    138 to 139 °C
3  COc1ccc(N2CCN(c3ccc(C=NNC(=O)CSc4nc5cc(OC)ccc5s4)cc3)CC2)cc1    199 to 200 °C
4  CC1CCCCN1c1ccc(C=NNC(=O)CSc2nc3cc(Cl)ccc3s2)cc1 (centres unmarked)    138 to 139 °C

Now examine the next entry.
Look at this compound and give its reported melting point. COc1ccc2sc(SCC(=O)NN=Cc3ccc(N4CCC(C)CC4)cc3)nc2c1 149 to 150 °C
